// values below are reported EC50 (read off the curve)
molecular target: T1, cynomolgus TIGIT on CHO cells (cynomolgus monkey, UniProt A0A7N9I9V4 89-312); test: FACS on CHO cells expressing cyno TIGIT, FITC anti-hIgG detection
T1 construct: whole, on cells; also called CHO-cyTIGIT; cyTIGIT
T1 sequence (A0A7N9I9V4 entry or part of it): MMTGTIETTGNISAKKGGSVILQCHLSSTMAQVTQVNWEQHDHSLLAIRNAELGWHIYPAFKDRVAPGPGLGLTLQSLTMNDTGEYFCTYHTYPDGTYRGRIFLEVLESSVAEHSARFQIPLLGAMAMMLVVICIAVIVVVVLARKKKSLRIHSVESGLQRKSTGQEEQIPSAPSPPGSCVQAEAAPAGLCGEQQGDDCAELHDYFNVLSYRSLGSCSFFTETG
experimental-readout: EC50 (read off the curve)

>>> value_reported("rat7E7 (antibody, V domains shown, SD rat-derived; rat V domains as FR/HVR pieces; also called 1.7E7; Chimeric 1.7E7) VH: EVQLQQSGPELQRPGASVKLSCKATGYTFTEYSIYWVKQRPKQSLEIIGRIDPKNGRTYYVDKFKNRATLTADTSSNTAYMQLSSLTSEDTATYFCTRIYGFYFDFWGQGVMVTASS VL: NIHLTQSPSLLSASVGDRVTLSCKGSQNVNKYLVWYQQKLGEAPKLLIYNTDNLQSGIPSRFSGSGSGTDYTLTISSLQPEDAATYFCYQYNNGFTFGSGTKLEIK")
"~0.3 nM"
>>> value_reported("rat15C8 (antibody, V domains shown, SD rat-derived; rat V domains as FR/HVR pieces; also called 1.15C8; Chimeric 1.15C8) VH: EVQLQQSGPELQRPGASVKLSCKASGYTFTEHSIYWLKQRPKQSLEIIGRIDPKNGRTYFVDKFKNRATLTTNTSSNTAYMQLSSLTSEDTAIYFCARIDGFYFDFWGQGVMVTASS VL: NIHLTQSPSLLSASVGDRVTLSCKGSQNVNKYLVWYQQKLGEAPKLLIYSTDNLQSGIPSRFSGSGSGTDYTLTISSLQPEDAATYFCYQYNNGFTFGSGTKLEIK")
"~0.4 nM"
>>> value_reported("7.4A3 (antibody, V domains shown, OMT rat-derived human antibody; also called 7.4A3.Q1.C96) VH: QVQLVQSGSDLKKPGASVRVSCKASGYTFTSYPMNWVRQAPGHGLEWMGWINTNTGNPTYVQGFTGRFVFSLDTSVNTAYLQISSLKAEDTAVYFCARTGGHTYDSYAFDVWGQGTMVTVSS VL: DIQLTQSPTFLSASVGDRVTITCRASQVISSSLAWYQQNPGKAPKLLIYAASTLQSGVPSRFSGSGSGTEFTLTISSLQPEDFVTYYCQHLHGYPCNFGQGTKVEIK")
"~1 nM"
